# Test system: FOXM1^A2 mRNA and FOXM1^BC mRNA
# assay.info: Splicing assay (FOXM1), qPCR of isoform mRNAs
# Format: cell-based
# study.conditions: FoxM1 A mRNA increase (exon excluded); 0.1-1000 nM, 24 hours; read-out: Splice EC50 (nM), FoxM1 A mRNA increase (exon excluded)
Listing: EC50 of selected molecules
reported.property: EC50

Oc1cc(-n2ccnc2)ccc1-c1ccc(O[C@@H]2C[C@H]3CC[C@@H](C2)N3)nn1	10 to 100 nM
Cc1ccc(-c2ccc(-c3ccc(N(C)[C@@H]4C[C@H]5CC[C@@H](C4)N5)nn3)c(O)c2)nn1	< 10 nM
CN(c1ccc(-c2ccc(-c3cnn(C)c(=O)c3)cc2O)nn1)[C@@H]1C[C@H]2CC[C@@H](C1)N2	< 10 nM
CN(c1ccc(-c2ccc(-c3ccn(C)c(=O)c3)cc2O)nn1)[C@@H]1C[C@H]2CC[C@@H](C1)N2	< 10 nM
Cc1nccn1-c1ccc(-c2ccc(N(C)[C@@H]3C[C@H]4CC[C@@H](C3)N4)nn2)c(O)c1	101 to 250 nM
Cc1nnc(-c2ccc(-c3ccc(N(C)[C@@H]4C[C@H]5CC[C@@H](C4)N5)nn3)c(O)c2)o1	10 to 100 nM
Cc1nnn(-c2ccc(-c3ccc(O[C@@H]4C[C@H]5CC[C@@H](C4)N5)nn3)c(O)c2)n1	10 to 100 nM

* * *

# Tested on: SMN2^FL mRNA
# assay.info: SMN2 splicing assay, real-time quantitative PCR, SMA type I patient cells (GM03813)
# Type: cell-based
# study.conditions: Homo sapiens, 24 hours
pEC50: −log10 of the molar value.
Listing: pEC50 of selected compounds
reported.property: pEC50

COc1cc(-c2ccc(-c3ccc(N(C)[C@@H]4C[C@H]5CCC[C@@H](C4)N5)nn3)c(O)c2)ccn1	8.40
CN(c1ccc(-c2ccc(-c3cn[nH]c3)cc2O)nn1)[C@@H]1C[C@H]2CCC[C@@H](C1)N2	9.22
CN(c1ccc(-c2ccc(-c3cn[nH]c3)cc2O)nn1)[C@@H]1C[C@H]2CC[C@@H](C1)N2	9.00
CN(c1ccc(-c2ccc(-c3cn[nH]c3)cc2O)nn1)[C@H]1C[C@]2(C)CC[C@](C)(C1)N2	9.15

* * *

# Test system: FOXM1^A2 mRNA and FOXM1^BC mRNA
# assay.info: Splicing assay (FOXM1), qPCR of isoform mRNAs
# Assay type: cell-based
# study.conditions: FoxM1 A mRNA increase (exon excluded); 0.1-1000 nM, 24 hours; read-out: Splice EC50 (nM), FoxM1 A mRNA increase (exon excluded)
reported.property: EC50

CN(c1ccc(-c2ccc(-n3cncn3)cc2O)nn1)[C@@H]1C[C@H]2CC[C@@H](C1)N2	< 10 nM
CN(c1ccc(-c2ccc(-n3ccnn3)cc2O)nn1)[C@@H]1C[C@H]2CCC[C@@H](C1)N2	< 10 nM
Cc1cn(-c2ccc(-c3ccc(N(C)[C@@H]4C[C@H]5CC[C@@H](C4)N5)nn3)c(O)c2)c(C)n1	251 to 500 nM
CN(c1ccc(-c2ccc(-c3ccc(=O)n(C)c3)cc2O)nn1)[C@@H]1C[C@H]2CC[C@@H](C1)N2	< 10 nM
CN(c1ccc(-c2ccc(-c3nnc(C(F)(F)F)o3)cc2O)nn1)[C@@H]1C[C@H]2CC[C@@H](C1)N2	101 to 250 nM
Cc1cnn(-c2ccc(-c3ccc(O[C@@H]4C[C@H]5CC[C@@H](C4)N5)nn3)c(O)c2)c1	101 to 250 nM
Oc1cc(-c2cn[nH]c2)ccc1-c1ccc(O[C@H]2CC3CCC[C@@H](C2)N3)nn1	> 1000 nM
CN(c1ccc(-c2cc3oc(C(=O)NC4CC4)cc3cc2O)nn1)[C@@H]1C[C@H]2CCC[C@@H](C1)N2	< 10 nM
[2H]C([2H])([2H])c1ncc(-c2cc(O)c(-c3ccc(N(C)[C@H]4C[C@]5(C)CC[C@](C)(C4)N5)nn3)cc2F)o1	> 1000 nM
Cc1cc(-c2ccc(-c3ccc(O[C@@H]4C[C@H]5CC[C@@H](C4)N5)nn3)c(O)c2)on1	> 1000 nM
Cc1cc(-c2ccc(-c3ccc(N(C)[C@@H]4C[C@H]5CC[C@@H](C4)N5)nn3)c(O)c2)on1	> 1000 nM
CN(c1ccc(-c2ccc(-n3cnc(C(F)(F)F)c3)cc2O)nn1)[C@@H]1C[C@H]2CC[C@@H](C1)N2	10 to 100 nM
Cc1cnn(-c2ccc(-c3ccc(N(C)[C@@H]4C[C@H]5CC[C@@H](C4)N5)nn3)c(O)c2)c1	10 to 100 nM
CN(c1ccc(-c2ccc(-n3nccn3)cc2O)nn1)[C@@H]1C[C@H]2CCC[C@@H](C1)N2	< 10 nM
Oc1cc(-n2ccnn2)ccc1-c1ccc(O[C@@H]2C[C@H]3CC[C@@H](C2)N3)nn1	101 to 250 nM
Cc1cn(-c2ccc(-c3ccc(N(C)[C@@H]4C[C@H]5CC[C@@H](C4)N5)nn3)c(O)c2)nn1	10 to 100 nM
Oc1cc(-c2nnn[nH]2)ccc1-c1ccc(O[C@@H]2C[C@H]3CC[C@@H](C2)N3)nn1	> 1000 nM
Cc1cn(-c2ccc(-c3ccc(N(C)[C@@H]4C[C@H]5CC[C@@H](C4)N5)nn3)c(O)c2)cn1	< 10 nM
Cc1cn(-c2ccc(-c3ccc(O[C@@H]4C[C@H]5CC[C@@H](C4)N5)nn3)c(O)c2)cn1	10 to 100 nM
Cc1ccn(-c2ccc(-c3ccc(O[C@@H]4C[C@H]5CC[C@@H](C4)N5)nn3)c(O)c2)n1	10 to 100 nM
